Reference for the values: the supplement of paper PMC10567573

Quick reference: protein stability index of the listed items.
# assay.summary: protein stability index of a GFP-peptide fusion (GPS, HEK-293T) (PSI 1-6); higher = more stable;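 note: 24-mer peptide tiles fused after GFP, lentivirally expressed, FACS-sorted into six equal bins by GFP/DsRed ratio, decoded by Illumina sequencing, PSI is the read-weighted mean bin number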
# condition.details: treatment: MLN4924 1 uM, 8 h; c terminus: a fixed tail appended
Respond with the number and no other words.

Here are 5 sequences together with their reported answers.
MTGRVCRGCGGTDIELDAARGDAV [BRF1]    3.77
ARSRALRRRWCPAGIMLLALVCLL [SPACA3]    2.23
RKKQHICDECGKHFSQGSALILHQ [ZNF24]    3.62
ELVGSGYRMSLVKRRFATGMYLVS [FCHO1]    2.26
QCCQTEIIELRRTVNALEIELQAQ [KRT36]    2.76

Request: Looking for the measured protein stability index of ELFHTIDTHNTNNLDTEELCEYFS [NECAB1] , can you help?
Result: 3.47

Request: Lookup QDGSESFFFRHGHRGLLTMQLKSP [SPAG8]
Result: 3.03

Request: Do the same for ANAEDAQEFSDVERAIETLIKNFH [S100A14] please
Result: 3.94

Request: # repeat for YKQLGSAGEGLPQVYYFGPCGKYN [CSNK1G1]
Result: 2.16

Request: Similarly, FRRGPAPQDQAGPGGAPRVASRNL [CLPTM1] ?
Result: 4.25

Request: Also, TYKLKCKALQEENRDLRKASVTIQ [CCDC6] please.
Result: 3.7

----------
# assay.summary: protein stability index of a GFP-peptide fusion (GPS, HEK-293T) (PSI 1-6); higher = more stable
# condition.details: treatment: MLN4924 1 uM, 8 h; c terminus: a fixed tail appended
# cutoff 3 applies to protein stability index; >= gives fulfilled, < gives not fulfilled

Here are 3 sequences together with their reported answers.
ELGVIFYNCSCLVLDLQRIFALYS [PLD5]    fulfilled
RFLANEVLQENYTHLPKADIFALA [WEE1]    not fulfilled
KKKVGNYYTTPIYRFRMKCHLCVN [YJU2B]    not fulfilled

Request: Does RQIRTNWATRKPPAPKSTYECRCI [TIA1] have a reported protein stability index of at least 3?
Result: not fulfilled

Request: Record: QLKEEMARHLREYQELLNVKMALD [PRPH]
Result: fulfilled

Request: Try MSGSCAVCVDRVLYLFGGHHSRGN [KLHDC2] next.
Result: not fulfilled

Request: Ok, now GSSRPCLDFLQEVTRQPRNLQDLC [ASB7]
Result: fulfilled

Request: Also, LYPSLGAGYRLGPAQPGADSSFPP [TBX6] please.
Result: fulfilled

Request: Please answer likewise for FWNQGLTWKVLFCSMSATFTLNFF [CLCN6]
Result: fulfilled

Request: Query QAWFGFAGTPGYLSPEVLRKEAYG [CAMK2B] next
Result: not fulfilled

Request: Note, next up: VRLAARQEDAPMIEPLVPEEKMET [EPB41L3]
Result: fulfilled

Request: Now try MRRQEPLPPPPPPSRGGNQLPRPP [WAS] .
Result: fulfilled

Request: And the next one, AGVLTIALPVPVIVSNFNYFYHRE [KCNA4] ?
Result: not fulfilled

Request: Subsequent entry: GTPADTGDLSPGHGASAPSVSREA [PWWP2B]
Result: fulfilled

Request: Then what about the sequence GKIRRGAYALPAGLSAPARCLVRC [TRIB3] ?
Result: not fulfilled

Request: Try this sequence next: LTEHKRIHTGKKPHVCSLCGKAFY [ZNF649]
Result: fulfilled

Request: Next entry: VGQQVHNLLLTYLIVTSLLLLPGL [ARL6IP1]
Result: fulfilled

Request: And PPLWAASAAGHLKVVQSLLNHGAS [FEM1C] ?
Result: not fulfilled

Request: Cool, now PLVKKHCDDSFTPQEKLWQQLRRG [CPOX]
Result: fulfilled

Request: Try this sequence next: SPEPGTPAAPTPESFTVHFLPLNS [DNAAF3]
Result: fulfilled

Request: Next entry: STQIRALTEQQEQLRGQLQDLDSR [RASAL3]
Result: fulfilled

----------
# assay.summary: protein stability index of a GFP-peptide fusion (GPS, HEK-293T) (PSI 1-6); higher = more stable
# condition.details: treatment: DMSO; c terminus: a fixed tail appended
Definition: the class of an entry is the range in c1 (below 3), c2 (3 to below 4), c3 (4 or more) that contains its protein stability index.

ALLNDHIYVVGGFDGTAHLSSVEA [KLHL12]    c1
FRRGPAPQDQAGPGGAPRVASRNL [CLPTM1]    c3
HLDRTSVSSLSEVEEVDMAEEFEQ [ELOA2]    c3
LALHPEAPGLYNHLPWQYHAGQGG [CCDC3]    c2
FATRPGAIETAMEDLKGHVAETSG [TPRG1]    c3

Request: Lab note: which band did LLGEETPMAADEGSAEKQAGEAHM [EHMT1] land in?
Result: c3

Request: Next sequence: LGKTEQGFENMDFFTLDLEHIADA [TRIM63]
Result: c2

Request: Another sequence to check: SNRGAYVKLGPALTPHIVQYQANK [PPEF2]
Result: c1

Request: Check VGQQVHNLLLTYLIVTSLLLLPGL [ARL6IP1] too.
Result: c2

Request: Try this sequence next: LKLQTKTIKVSYARPSSASIRDAN [ELAVL3]
Result: c1

Request: Ok, now PGRSSVASPRRLSNVSSSGSINLL [MAP2]
Result: c2

Request: Note, next up: ELFHTIDTHNTNNLDTEELCEYFS [NECAB1]
Result: c2

Request: Now the sequence QYPAGTQGEQLEVPERLLVVLDME [SPSB2]
Result: c2

Request: Similarly, SEMLDITMKESLTTREIRRQEAIY [NET1] ?
Result: c2

Request: And then RGHMPEWYTKSFGHLCAAEVVKIR [DLC1] , what is it?
Result: c1

Request: Next record, please: RCVLVFEQVRFLMKSYSFLREAVP [SOAT2]
Result: c1

Request: Also check QSHISDMSVILSMDNNRNLDLDSI [KRT71]
Result: c2

Request: Here is the next sequence: ILTLTMISLFFLIIYMGSFMLMLL [CDS1]
Result: c1

Request: Also SSALSQSGGGSTSAAGIEARSRAL [SPACA3] ?
Result: c3

Request: Same again, this time with LPSERWNPTQNVRTILLSVISLLN [CDC34]
Result: c2

----------
# assay.summary: protein stability index of a GFP-peptide fusion (GPS, HEK-293T) (PSI 1-6); higher = more stable
# condition.details: treatment: MLN4924 1 uM, 8 h; c terminus: a fixed tail appended
endpoint: protein stability index
Give a plain numeric answer without units written out.

Here are 2 sequences together with their reported answers.
YDRRVIRGNTYALQTGPLLGRPDS [RSPH3]    3.56
DNPANRSLVLPWSFPLEWAPQNLT [TOR1AIP2]    2.79

Request: Using the record for LGQEFDEVTADDRKVKSTITLDGG [FABP4] , report its protein stability index.
Result: 5.32

Request: Another sequence: LFAPLKLQMEFKAVQQVQRLPFLS [POMP]
Result: 2.46

Request: Now the sequence QKTLQVKCQHYKKKRTEQEETIAS [CEP70]
Result: 4.64

Request: What do you have for GLPFILRPTSCWQLDWDELETNQQ [M1AP] ?
Result: 2.67

Request: Try this sequence too: ENEETGEFSIDNYPTDNTKVMIFK [MIA2]
Result: 4.22

Request: And the next one, TEPDYKSKDWVFLNYTYKRFEGLT [STK38L] ?
Result: 2.39

Request: Thanks! And AAEERALFTDRMATRSTTQSNRTS [WEE1] ?
Result: 5.17

Request: Same for AYPLELQGQPDPAPRPGPPAGTPP [MOSPD3]
Result: 5.01

Request: LKERCAQDACQAQAREKELLELQS [CCDC89]
Result: 4

Request: Next entry: SLVLPWSFPLEWAPQNLTRWTFEK [TOR1AIP2]
Result: 2.29

Request: Input EGQHPAQLRSDVCTPGGTTIYGLH [PYCR3]
Result: 3.92

Request: Next up: LDKSTTGVSEILLKTQMKMSLKCL [FEM1B]
Result: 2.17

Request: # iterate: QPHHQPPNRAGAPGESLECPAELR [TRAF3IP2]
Result: 5.21

Request: How about this sequence: MDATNAFKKTAYELLDEKLLARGT [FEM1A]
Result: 3.85

Request: Follow-up entry: AAKARDTGILIFAIGVGQVDFNTL [MATN2]
Result: 3.16

Request: Now consider QKLQEITRCKSSEEKKPGELKRLV [TRIM39] and answer again.
Result: 4.21

Request: Another sequence to look at: KLKALHVDSAEYSCLKAIVLFTSD [NR2F2]
Result: 2.27

Request: ILLDGSEYTCDVEKRSRGQVLFDK [EPB41L3] , same question.
Result: 2.94

Request: And the next one, LAFVGGLPLAYQQTSAFARQPRDE [TMEM175] ?
Result: 3.06

Request: Quick one: QMSGEPLDKLNFEAINFCRGLGSQ [ACSBG2]
Result: 2.89

Request: Try EQCPVIDSQAPAGSLDLVPGGLTL [SPDEF] next.
Result: 4.24

Request: Same for EGGEGEKEGEGEVGGEAVEVEEVE [TRIM55]
Result: 5.41
